- MEASUREMENT_TARGET: T1, human soluble urokinase plasminogen activator receptor (suPAR) (human, UniProt Q03405 23-303, limits assumed)
- T1 construct: Target antigen of the off-rate screen; also called hsuPAR; human suPAR
- T1 sequence (Q03405 23-303 limits assumed): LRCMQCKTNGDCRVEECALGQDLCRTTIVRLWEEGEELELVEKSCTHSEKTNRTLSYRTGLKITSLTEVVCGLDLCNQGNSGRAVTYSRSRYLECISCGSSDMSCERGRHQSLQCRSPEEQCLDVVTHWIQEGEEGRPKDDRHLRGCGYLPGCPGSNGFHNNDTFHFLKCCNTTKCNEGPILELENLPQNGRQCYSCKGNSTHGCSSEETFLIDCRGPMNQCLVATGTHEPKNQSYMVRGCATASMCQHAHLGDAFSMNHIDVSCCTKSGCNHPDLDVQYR
- ASSAY_REMARKS: off-rate (kdis) screen of scFv clones, biosensor (Octet)

>  <BINDER>
suPAR_DB01_D10 (scFv, V domains shown, screened as scFv) VH: QVQLVQSGAEVKKPGASVKVSCKASGYTFTGYYMHWVRQAPGQGLEWMGWIDHENGSTSYDQKFQGRVTMTRDTSTSTVYMELSSLRSEDTAVYYCARGYDVDWFVYWGQGTLVTVSS VL: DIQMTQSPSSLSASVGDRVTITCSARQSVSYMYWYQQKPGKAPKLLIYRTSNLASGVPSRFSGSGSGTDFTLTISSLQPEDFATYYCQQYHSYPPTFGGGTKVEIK

>  <UNIT_TAG>
s⁻¹

>  <koff>
0.00147

$$$$
>  <BINDER>
suPAR_DB01_A04 (scFv, V domains shown, screened as scFv) VH: QVQLVQSGAEVKKPGASVKVSCKASGYTFTGYYMHWVRQAPGQGLEWMGWIDHENGNTIYDQKFQGRVTMTRDTSTSTVYMELSSLRSEDTAVYYCARGYDVDWFVYWGQGTLVTVSS VL: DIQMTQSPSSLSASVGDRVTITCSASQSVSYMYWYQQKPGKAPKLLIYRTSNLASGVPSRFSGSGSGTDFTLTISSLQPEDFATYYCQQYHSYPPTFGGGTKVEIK

>  <UNIT_TAG>
s⁻¹

>  <koff>
0.000911

$$$$
>  <BINDER>
suPAR_DB01_B04 (scFv, V domains shown, screened as scFv) VH: QVQLVQSGAEVKKPGASVKVSCKASGYTFTSYYMHWVRQAPGQGLEWMGWIDHENGNTIYDQKFQGRVTMTRDTSTSTVYMELSSLRSEDTAVYYCARGYDVDWFVYWGQGTLVTVSS VL: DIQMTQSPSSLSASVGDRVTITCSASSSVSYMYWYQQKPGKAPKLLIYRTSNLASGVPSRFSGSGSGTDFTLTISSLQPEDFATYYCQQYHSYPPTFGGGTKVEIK

>  <UNIT_TAG>
s⁻¹

>  <koff>
0.00206

$$$$
